target: 17-beta-hydroxysteroid dehydrogenase type 3 (Homo sapiens) (UniProt P37058); assay: Inhibition of type-3 17 beta-hydroxysteroid dehydrogenase expressed in HEK293 cells at 0.3 uM 37 degree C pH 7.4; format: cell-based
Sequence (P37058 whole entry): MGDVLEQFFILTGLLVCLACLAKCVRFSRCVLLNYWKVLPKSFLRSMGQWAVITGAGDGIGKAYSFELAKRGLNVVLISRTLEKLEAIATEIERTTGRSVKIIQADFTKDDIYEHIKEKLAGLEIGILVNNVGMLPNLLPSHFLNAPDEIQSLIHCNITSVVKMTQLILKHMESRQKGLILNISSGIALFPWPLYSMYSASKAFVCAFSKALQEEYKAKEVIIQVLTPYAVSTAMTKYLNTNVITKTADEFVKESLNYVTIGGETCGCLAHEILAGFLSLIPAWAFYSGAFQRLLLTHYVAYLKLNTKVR
Readout name: inhibition (%)
Just the number please, in %, no unit attached.

Problem: Identify the measured inhibition of CCO[C@]1(Cc2ccccc2)CC[C@@]2(C)C(CC[C@@H]3[C@@H]2CC[C@]2(C)C(=O)CC[C@@H]32)C1 (stereo partly specified) for 17-beta-hydroxysteroid dehydrogenase type 3 (Homo sapiens) (UniProt P37058).
Solution: 80

Problem: Identify the measured inhibition of C[C@]12CC[C@]3(CCC(=O)O3)CC1CC[C@@H]1[C@@H]2CC[C@]2(C)C(=O)CC[C@@H]12 (stereo partly specified) for 17-beta-hydroxysteroid dehydrogenase type 3 (Homo sapiens) (UniProt P37058).
Solution: 50

Problem: Identify the measured inhibition of C[C@]12CC[C@@H](OCCC(=O)O)CC1CC[C@@H]1[C@@H]2CC[C@]2(C)C(=O)CC[C@@H]12 (stereo partly specified) for 17-beta-hydroxysteroid dehydrogenase type 3 (Homo sapiens) (UniProt P37058).
Solution: 7

Problem: Identify the measured inhibition of C[C@]12CC[C@@]3(CCC(=O)O3)CC1CC[C@@H]1[C@@H]2CC[C@]2(C)C(=O)CC[C@@H]12 (stereo partly specified) for 17-beta-hydroxysteroid dehydrogenase type 3 (Homo sapiens) (UniProt P37058).
Solution: 9

Problem: Identify the measured inhibition of CCCCCCO[C@]1(Cc2ccccc2)CC[C@@]2(C)C(CC[C@@H]3[C@@H]2CC[C@]2(C)C(=O)CC[C@@H]32)C1 (stereo partly specified) for 17-beta-hydroxysteroid dehydrogenase type 3 (Homo sapiens) (UniProt P37058).
Solution: 24

Problem: Identify the measured inhibition of C[C@]12CC[C@@H](OCCCBr)CC1CC[C@@H]1[C@@H]2CC[C@]2(C)C(=O)CC[C@@H]12 (stereo partly specified) for 17-beta-hydroxysteroid dehydrogenase type 3 (Homo sapiens) (UniProt P37058).
Solution: 56

Problem: Identify the measured inhibition of C[C@]12CC[C@@](O)(c3ccccc3)CC1CC[C@@H]1[C@@H]2CC[C@]2(C)C(=O)CC[C@@H]12 (stereo partly specified) for 17-beta-hydroxysteroid dehydrogenase type 3 (Homo sapiens) (UniProt P37058).
Solution: 7

Problem: Identify the measured inhibition of CCCCCCO[C@@H]1CC[C@@]2(C)C(CC[C@@H]3[C@@H]2CC[C@]2(C)C(=O)CC[C@@H]32)C1 (stereo partly specified) for 17-beta-hydroxysteroid dehydrogenase type 3 (Homo sapiens) (UniProt P37058).
Solution: 45

Problem: Identify the measured inhibition of CCC[C@]1(O)CC[C@@]2(C)C(CC[C@@H]3[C@@H]2CC[C@]2(C)C(=O)CC[C@@H]32)C1 (stereo partly specified) for 17-beta-hydroxysteroid dehydrogenase type 3 (Homo sapiens) (UniProt P37058).
Solution: 9

Problem: Identify the measured inhibition of C[C@]12CCC3(CCCO3)CC1CC[C@@H]1[C@@H]2CC[C@]2(C)C(=O)CC[C@@H]12 (stereo partly specified) for 17-beta-hydroxysteroid dehydrogenase type 3 (Homo sapiens) (UniProt P37058).
Solution: 3

Problem: Identify the measured inhibition of C[C@]1(O)CC[C@@]2(C)C(CC[C@@H]3[C@@H]2CC[C@]2(C)C(=O)CC[C@@H]32)C1 (stereo partly specified) for 17-beta-hydroxysteroid dehydrogenase type 3 (Homo sapiens) (UniProt P37058).
Solution: 9

Problem: Identify the measured inhibition of CO[C@]1(CCc2ccccc2)CC[C@@]2(C)C(CC[C@@H]3[C@@H]2CC[C@]2(C)C(=O)CC[C@@H]32)C1 (stereo partly specified) for 17-beta-hydroxysteroid dehydrogenase type 3 (Homo sapiens) (UniProt P37058).
Solution: 61

Problem: Identify the measured inhibition of C=CC[C@@]1(O)CC[C@@]2(C)C(CC[C@@H]3[C@@H]2CC[C@]2(C)C(=O)CC[C@@H]32)C1 (stereo partly specified) for 17-beta-hydroxysteroid dehydrogenase type 3 (Homo sapiens) (UniProt P37058).
Solution: 31

Problem: Identify the measured inhibition of CCCCCCCCCCCC[C@@]1(O)CC[C@@]2(C)C(CC[C@@H]3[C@@H]2CC[C@]2(C)C(=O)CC[C@@H]32)C1 (stereo partly specified) for 17-beta-hydroxysteroid dehydrogenase type 3 (Homo sapiens) (UniProt P37058).
Solution: 50

Problem: Identify the measured inhibition of C=CCO[C@@H]1CC[C@@]2(C)C(CC[C@@H]3[C@@H]2CC[C@]2(C)C(=O)CC[C@@H]32)C1 (stereo partly specified) for 17-beta-hydroxysteroid dehydrogenase type 3 (Homo sapiens) (UniProt P37058).
Solution: 73

Problem: Identify the measured inhibition of CO[C@]1(Cc2ccccc2)CC[C@@]2(C)C(CC[C@@H]3[C@@H]2CC[C@]2(C)C(=O)CC[C@@H]32)C1 (stereo partly specified) for 17-beta-hydroxysteroid dehydrogenase type 3 (Homo sapiens) (UniProt P37058).
Solution: 91
